Molecular target: αvβ6 (Homo sapiens (Human), UniProt P06756+P18564)
Sequence (P06756 31-992): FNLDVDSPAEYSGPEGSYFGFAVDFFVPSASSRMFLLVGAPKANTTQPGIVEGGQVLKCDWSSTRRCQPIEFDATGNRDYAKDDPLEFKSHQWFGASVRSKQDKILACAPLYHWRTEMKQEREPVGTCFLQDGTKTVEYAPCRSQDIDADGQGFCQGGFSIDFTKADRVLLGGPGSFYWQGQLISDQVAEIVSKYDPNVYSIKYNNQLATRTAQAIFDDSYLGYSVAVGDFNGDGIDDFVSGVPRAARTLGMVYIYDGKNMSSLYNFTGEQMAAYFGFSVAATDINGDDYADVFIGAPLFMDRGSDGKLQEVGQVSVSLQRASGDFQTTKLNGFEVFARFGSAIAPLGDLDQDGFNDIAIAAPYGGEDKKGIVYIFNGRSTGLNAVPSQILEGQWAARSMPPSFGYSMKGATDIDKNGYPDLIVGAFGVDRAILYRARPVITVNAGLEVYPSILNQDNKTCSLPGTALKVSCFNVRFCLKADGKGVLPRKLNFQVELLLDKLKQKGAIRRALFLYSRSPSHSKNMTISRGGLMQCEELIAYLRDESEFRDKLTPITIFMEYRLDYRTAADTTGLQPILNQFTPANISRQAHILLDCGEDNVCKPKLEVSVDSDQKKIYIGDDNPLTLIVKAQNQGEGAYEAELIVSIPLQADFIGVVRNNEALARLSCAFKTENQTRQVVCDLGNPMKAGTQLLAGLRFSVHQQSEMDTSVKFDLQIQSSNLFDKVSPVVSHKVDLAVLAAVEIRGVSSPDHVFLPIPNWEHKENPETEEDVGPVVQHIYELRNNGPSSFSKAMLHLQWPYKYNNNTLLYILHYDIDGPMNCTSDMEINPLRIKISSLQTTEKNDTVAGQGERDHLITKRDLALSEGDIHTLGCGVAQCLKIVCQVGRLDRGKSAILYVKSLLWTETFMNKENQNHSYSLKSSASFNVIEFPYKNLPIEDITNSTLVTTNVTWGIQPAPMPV
Sequence (P18564 22-707): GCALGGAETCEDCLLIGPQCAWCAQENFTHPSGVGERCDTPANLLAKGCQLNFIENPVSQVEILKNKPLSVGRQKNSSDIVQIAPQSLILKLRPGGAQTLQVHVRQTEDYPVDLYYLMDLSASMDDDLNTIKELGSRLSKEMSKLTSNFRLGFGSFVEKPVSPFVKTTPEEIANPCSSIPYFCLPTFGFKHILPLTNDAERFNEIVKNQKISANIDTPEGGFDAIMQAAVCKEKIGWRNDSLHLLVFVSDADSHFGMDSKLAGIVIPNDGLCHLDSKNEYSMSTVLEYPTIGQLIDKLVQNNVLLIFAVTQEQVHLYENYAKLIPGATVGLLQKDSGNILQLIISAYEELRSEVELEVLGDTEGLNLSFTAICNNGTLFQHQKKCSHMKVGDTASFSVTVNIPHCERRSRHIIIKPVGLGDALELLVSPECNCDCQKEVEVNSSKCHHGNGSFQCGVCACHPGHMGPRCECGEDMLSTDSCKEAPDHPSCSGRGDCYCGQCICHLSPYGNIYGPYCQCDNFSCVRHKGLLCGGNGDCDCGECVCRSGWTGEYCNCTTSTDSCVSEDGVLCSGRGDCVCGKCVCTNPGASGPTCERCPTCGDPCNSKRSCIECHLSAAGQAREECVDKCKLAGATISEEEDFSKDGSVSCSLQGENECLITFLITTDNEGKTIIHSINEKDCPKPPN
Experiment: αVβ6–LAP-TGF β1 integrin binding assay (integrin-coupled beads, flow cytometry)
Settings: ligand LAP TGF-β1
Method: All αV Integrins are known to bind to proteins with a RGD motif. […] The integrin coupled Dyna beads were allowed to interact with respective ligands. The integrin-ligand complex was detected with either Primary/Secondary Antibody conjugated with Fluorescein Isothiocyanate (FITC). […] αVβ6/αVβ8 coupled beads were treated with the ligand LAP TGF-β1 (LAP1) at room temperature for 3 hours. […] The complex was analyzed by either plate reader or Flow Cytometer. […]
Exercise: state measured IC50 for each of the molecules provided.
Phrase the answer as number then unit, nothing more needed.

- O=C(O)CC(CCCCCCc1ccc2c(n1)NCCC2)c1cnc2cc(F)ccc2c1 (stereo not shown): 9.97 nM

Batch lookup, IC50 per entry.
1. O=C(O)CC(CCCCCCc1ccc2c(n1)NCCC2)c1ccc(OC(F)F)nc1 (stereo not shown)
2. O=C(O)CC(CCCCCCc1ccc2c(n1)NCCC2)c1cnc(C(F)(F)F)nc1 (stereo not shown)
3. O=C(O)CC(CCCCCCc1ccc2c(n1)NCCC2)c1cccc(C(F)(F)F)c1 (stereo not shown) [Compound A21]

18.2 nM
11.6 nM
7.64 nM
